Consider the following molecules; for each one, report its inhibition.
- experimental_target: Tyrosine-protein kinase FRK (Homo sapiens);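 note: values are mean inhibition of PTK5 (FRK) kinase activity from the GSK PKIS screening set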
- test_parameters: at 0.1 µM
The answer is to be given in %; state only the numeric part.

Challenge: Identify measured inhibition associated with Nc1nc(-c2ccc3c(c2)C(=Cc2cc(Br)c(O)c(Br)c2)C(=O)N3)cs1
Response given: 0.6

Challenge: Identify measured inhibition associated with COc1ccccc1Nc1ncc(-c2ccccc2)o1
Response given: 3.68

Challenge: Identify measured inhibition associated with O=C(Nc1n[nH]c2nc(-c3ccco3)c(Br)cc12)C1CC1
Response given: 1.22

Challenge: Identify measured inhibition associated with Cc1cccc(-c2n[nH]cc2-c2ccc3ncccc3n2)n1
Response given: 1.55

Challenge: Identify measured inhibition associated with O=C1Nc2ccc(C(=O)c3ccco3)cc2C1=Cc1cc(Cl)c(O)c(Cl)c1
Response given: 1.7

Challenge: Identify measured inhibition associated with CC1=C(C(=O)Nc2ccc3[nH]ncc3c2)C(c2ccc(Cl)c(Cl)c2)CC(=O)N1 (stereo not given)
Response given: 1.03

Challenge: Identify measured inhibition associated with COc1cc2ncn(-c3cc(O[C@@H](C)c4ccccc4Cl)c(C(N)=O)s3)c2cc1OC
Response given: 5.42

Challenge: Identify measured inhibition associated with COc1ccc2cc(-c3c(-c4ccncc4)nc(-c4ccc([S+](C)[O-])cc4)n3C)ccc2c1 (stereo not given)
Response given: 2.23

Challenge: Identify measured inhibition associated with N#Cc1c(NC(=O)c2cccc3ccccc23)sc2c1CCCC2
Response given: 2.64

Challenge: Identify measured inhibition associated with COc1cc(C)c(NC(=O)CN(C)C)cc1Nc1nc(Nc2cccc(F)c2C(N)=O)c2cc[nH]c2n1
Response given: 0.21

Challenge: Identify measured inhibition associated with CS(=O)(=O)CCN(CC#N)Cc1ccc(-c2ccc3ncnc(Nc4ccc(OCc5cccc(F)c5)c(Cl)c4)c3c2)o1
Response given: 1.47

Challenge: Identify measured inhibition associated with COc1cc2ncn(-c3cc(O[C@H](C)c4ccccc4Cl)c(C(N)=O)s3)c2cc1OC
Response given: 2.17

Challenge: Identify measured inhibition associated with Nc1ncnc2occ(-c3ccc(NC(=O)Nc4cccc(C(F)(F)F)c4)cc3)c12
Response given: 4.28

Challenge: Identify measured inhibition associated with NS(=O)(=O)c1cccc(-c2ccc3c(NC(=O)C4CC4)n[nH]c3c2)c1
Response given: 0.47

Challenge: Identify measured inhibition associated with Cc1nn(C)c2cc(N(C)c3ccnc(Nc4cccc(S(N)(=O)=O)c4)n3)ccc12
Response given: 3.71

Challenge: Identify measured inhibition associated with CCn1c(-c2nonc2N)nc2cncc(C(=O)N3CC[C@H](N)C3)c21
Response given: 3.16

Challenge: Identify measured inhibition associated with CCCN1CCC=C(c2ccc(Nc3nc(Nc4ccccc4C(N)=O)c4cc[nH]c4n3)c(C)c2)C1
Response given: 1.94

Challenge: Identify measured inhibition associated with CCn1c(-c2nonc2N)nc2c(C#CC(C)(C)O)nc(CN3CCCC3)cc21
Response given: 0.91

Challenge: Identify measured inhibition associated with NC(=O)c1ccc(-c2nc(-c3ccccn3)c(-c3ccc4c(c3)OCO4)[nH]2)cc1
Response given: 0.98

Challenge: Identify measured inhibition associated with NC(=O)c1cccc(Nc2nccc(Nc3cccc4[nH]ncc34)n2)c1
Response given: 61.6
